cytotoxicity at 70.5 h overview
# MEASUREMENT PROTOCOL: Human HepG2 cell viability assay in 384 well format
# Assay type: toxicity, cell-based
# Parameters: dose 125 nL, time 70.5 hour; concentration not given beside the values
# RECORDED CONDITIONS: HepG2 cells, read-out: Inhibition
Your answer is read as %, so omit the unit and give the number.

# annotated cases, reported cytotoxicity at 70.5 h shown
[
  {
    "MOLECULE": "Cc1cccc(C(C)(C)CNc2cn[nH]c(=O)c2Cl)c1",
    "RESULT UNITS": "%",
    "EXPERIMENTAL RESULT": 18.4
  },
  {
    "MOLECULE": "Cc1cc(N2CC[C@H](O)C2)n2nc(C)c(C)c2n1",
    "RESULT UNITS": "%",
    "EXPERIMENTAL RESULT": -1.97
  },
  {
    "MOLECULE": "COc1c(CNC2CCSc3ccc(F)cc32)c(C)nn1C (centres undefined)",
    "RESULT UNITS": "%",
    "EXPERIMENTAL RESULT": 25.9
  },
  {
    "MOLECULE": "Cc1nc(Nc2ncccn2)cc(C2CCCN2C)n1 (centres undefined)",
    "RESULT UNITS": "%",
    "EXPERIMENTAL RESULT": -7.58
  },
  {
    "MOLECULE": "Cc1cc(C)n(CC2CCCN2C(=O)c2cccnc2N(C)C)n1 (centres undefined)",
    "RESULT UNITS": "%",
    "EXPERIMENTAL RESULT": -8.62
  },
  {
    "MOLECULE": "COCC1(CNc2cc(C(C)C)nc(N)n2)CC1",
    "RESULT UNITS": "%",
    "EXPERIMENTAL RESULT": 2.2
  },
  {
    "MOLECULE": "CCC(C)(C)NC(=O)Cn1nc(C)nc1-c1cccc(C)c1",
    "RESULT UNITS": "%",
    "EXPERIMENTAL RESULT": -3.94
  },
  {
    "MOLECULE": "COCCOCC(=O)N1C[C@@H]2CC[C@H](Oc3ccccc3)[C@@H]2C1",
    "RESULT UNITS": "%",
    "EXPERIMENTAL RESULT": -3.37
  }
]

Proceeding to the next molecule to report its cytotoxicity at 70.5 h.
Consider CC1=Nc2c(c(O)nn2C(C)C)C(c2cn(C)nc2C)S1 (centres undefined) . Its measured cytotoxicity at 70.5 h is 21

* * *

cytotoxicity at 70.5 h overview
# MEASUREMENT PROTOCOL: Human HepG2 cell viability assay in 384 well format
# Type: toxicity, cell-based
# Parameters: dose 125 nL, time 70.5 hour; concentration not given beside the values
# RECORDED CONDITIONS: HepG2 cells, read-out: Inhibition
Your answer is read as %, so omit the unit and give the number.

# annotated cases, reported cytotoxicity at 70.5 h shown
[
  {
    "COMPOUND": "O=C(NCc1ccco1)c1nn(C2CCS(=O)(=O)C2)c2c1CCCC2 (stereo unspecified)",
    "MEASURED PROPERTY": "cytotoxicity at 70.5 h",
    "RESULT UNITS": "%",
    "EXPERIMENTAL RESULT": -10.4
  },
  {
    "COMPOUND": "O=C(c1cccs1)N1CCN(Cc2cc(=O)c3ccccc3[nH]2)CC1",
    "MEASURED PROPERTY": "cytotoxicity at 70.5 h",
    "RESULT UNITS": "%",
    "EXPERIMENTAL RESULT": -4.26
  }
]

Proceeding to the next compound to report its cytotoxicity at 70.5 h.
Consider Cc1cc(=O)[nH]c(NCCNC(=O)C(c2ccc(F)cc2)N(C)C)n1 (stereo unspecified) . Its measured cytotoxicity at 70.5 h is 11.9

* * *

# MEASUREMENT PROTOCOL: Human HepG2 cell viability assay in 384 well format
# Type: toxicity, cell-based
# Parameters: dose 125 nL, time 70.5 hour; concentration not given beside the values
# RECORDED CONDITIONS: HepG2 cells, read-out: Inhibition
MEASURED PROPERTY: cytotoxicity at 70.5 h

# annotated cases, reported cytotoxicity at 70.5 h shown
[
  {
    "MOLECULE": "Cc1ccccc1N1CC(c2nnc(N)s2)CC1=O (stereo unspecified)",
    "cytotoxicity at 70.5 h": "3.37%"
  },
  {
    "MOLECULE": "O=C1OCCN1CCS(=O)(=O)c1cccc(Br)c1",
    "cytotoxicity at 70.5 h": "-2.02%"
  },
  {
    "MOLECULE": "CN(Cc1cnn(C)c1)c1nccc(-c2cc(C(=O)O)ccn2)n1",
    "cytotoxicity at 70.5 h": "18.1%"
  },
  {
    "MOLECULE": "CC1CCN(CC(=O)N(C)CCc2noc(C3CC3)n2)C1=O (stereo unspecified)",
    "cytotoxicity at 70.5 h": "-5.01%"
  }
]

Consider Cc1nc(C)n(CC2CCCCN2CCCS(C)(=O)=O)n1 (stereo unspecified) . Its measured cytotoxicity at 70.5 h is 9.04%

Consider CN(C(=O)Nc1ccncc1)C1CCN(c2ccc(Cl)cc2)CC1 . Its measured cytotoxicity at 70.5 h is 1.01%

* * *

# MEASUREMENT PROTOCOL: Human HepG2 cell viability assay in 384 well format
# Format: toxicity, cell-based
# Set-up: dose 125 nL, time 70.5 hour; concentration not given beside the values
# RECORDED CONDITIONS: HepG2 cells, read-out: Inhibition
MEASURED PROPERTY: cytotoxicity at 70.5 h (%)
Your answer is read as %, so omit the unit and give the number.

[
  {
    "MOLECULE": "CNC(=O)c1cnn2c(C3CCCN3C)ccnc12 (configuration not stated)",
    "cytotoxicity at 70.5 h, %": 12.8
  },
  {
    "MOLECULE": "CC(C)OCCC(=O)Nc1cccc(N2CCN(CC3CC3)CC2)c1",
    "cytotoxicity at 70.5 h, %": -4.83
  },
  {
    "MOLECULE": "Cc1noc(C)c1C(=O)NCC(c1ccsc1)N(C)C (configuration not stated)",
    "cytotoxicity at 70.5 h, %": -8.5
  },
  {
    "MOLECULE": "O=C(NCc1ccc(CO)cc1)C1CCOc2ccccc2C1 (configuration not stated)",
    "cytotoxicity at 70.5 h, %": 4.54
  },
  {
    "MOLECULE": "CCN(CC)C(=O)c1ccn(COc2ccc(F)cc2)n1",
    "cytotoxicity at 70.5 h, %": -10.8
  }
]

Proceeding to the next molecule to report its cytotoxicity at 70.5 h.
Consider Cc1csc(CNCC(C)c2nc3ccccc3o2)n1 (configuration not stated) . Its measured cytotoxicity at 70.5 h is 15

* * *

# MEASUREMENT PROTOCOL: Human HepG2 cell viability assay in 384 well format
# Assay type: toxicity, cell-based
# Set-up: dose 125 nL, time 70.5 hour; concentration not given beside the values
# RECORDED CONDITIONS: HepG2 cells, read-out: Inhibition
MEASURED PROPERTY: cytotoxicity at 70.5 h (%)
Your answer is read as %, so omit the unit and give the number.

# annotated cases, reported cytotoxicity at 70.5 h shown
[
  {
    "MOLECULE": "Cc1ccnc(Cn2cc(-c3cccc(C(C)N(C)C)c3)nn2)c1 (configuration not stated)",
    "RESULT UNITS": "%",
    "cytotoxicity at 70.5 h": -6.95
  },
  {
    "MOLECULE": "NCc1cn(-c2ccccc2C(=O)NCc2cccc(Cl)c2)cn1",
    "RESULT UNITS": "%",
    "cytotoxicity at 70.5 h": -13.7
  },
  {
    "MOLECULE": "CCc1nccn1C1CCCN(C(=O)c2cnc3ccccc3n2)C1 (configuration not stated)",
    "RESULT UNITS": "%",
    "cytotoxicity at 70.5 h": -2.77
  },
  {
    "MOLECULE": "CCn1c(C)nnc1SCCNC(=O)c1cccc2ccnn12",
    "RESULT UNITS": "%",
    "cytotoxicity at 70.5 h": 14.1
  },
  {
    "MOLECULE": "CC(NC(=O)c1cc(-c2cccc(Cl)c2)no1)C(=O)N1CCCC1 (configuration not stated)",
    "RESULT UNITS": "%",
    "cytotoxicity at 70.5 h": -10.6
  },
  {
    "MOLECULE": "CC(=O)c1c(F)cccc1NC1CCN(C(=O)CC(C)C)CC1",
    "RESULT UNITS": "%",
    "cytotoxicity at 70.5 h": 12.4
  },
  {
    "MOLECULE": "CCc1nc(C2CCCN2Cc2nnc(CC)o2)no1 (configuration not stated)",
    "RESULT UNITS": "%",
    "cytotoxicity at 70.5 h": -9.92
  },
  {
    "MOLECULE": "CS(=O)(=O)N1CCN(CC2CC2)c2ncccc2C1",
    "RESULT UNITS": "%",
    "cytotoxicity at 70.5 h": -9.41
  }
]

Consider CC(=O)N1CCC1c1nc(-c2ccc(C)s2)no1 (configuration not stated) . Its measured cytotoxicity at 70.5 h is 23.5

Consider O=C(c1cc(-c2cccs2)on1)N1CCCCC1Cn1cccn1 (configuration not stated) . Its measured cytotoxicity at 70.5 h is -8.41

Consider CC(=O)Nc1ccc(Cl)c(C(=O)N(C)C(C)c2nccs2)c1 (configuration not stated) . Its measured cytotoxicity at 70.5 h is -3.55

Consider COCC(=O)N1CCC2(CCN(Cc3ccc(C)cc3)CC2)CC1 . Its measured cytotoxicity at 70.5 h is -11.5

Consider CN(C)CCO[C@H]1CN(C(=O)c2ccc(C#N)cc2)[C@@H]2COC[C@H]12 . Its measured cytotoxicity at 70.5 h is -11

Consider CCN(CC)C(=O)C(c1ccccc1)N1CCn2c(C)nnc2C1 (configuration not stated) . Its measured cytotoxicity at 70.5 h is 2.24

Consider CCn1c(C2CCNCC2)nn(CCCc2ccccc2)c1=O . Its measured cytotoxicity at 70.5 h is -5.09

Consider CCOc1cc(C)nc(N2CCN(C(=O)c3cnc[nH]3)CC2)n1 . Its measured cytotoxicity at 70.5 h is -0.152

Consider Cc1nn(C(C)C)c(C)c1CN1CCC(c2cc(C(C)C)n[nH]2)CC1 . Its measured cytotoxicity at 70.5 h is -0.772

Consider O=C(NCc1ccco1)Nc1cccc(S(=O)(=O)C(F)F)c1 . Its measured cytotoxicity at 70.5 h is -8.46

Consider CN(C)CCNCC1(O)CCCN(Cc2cccc(F)c2F)C1=O (configuration not stated) . Its measured cytotoxicity at 70.5 h is 16.1

Consider CN(Cc1noc(C2CC2)n1)C1CCN(CCS(C)(=O)=O)C1 (configuration not stated) . Its measured cytotoxicity at 70.5 h is -3.36
